- studyTarget: rat δPKC (endogenous, in perfused rat hearts) (rat)
- methodNotes: cell-based or functional assay
outcomeMeasure: CPK (u/L)
All answers are understood in u/L, so give the number only.

Some solved entries appear below for comparison.
substance	displayUnit	CPK (u/L)
p196 (ALSTEA), TAT-conjugated (peptide)	u/L	926
p195 (ALSTAR), TAT-conjugated (peptide)	u/L	913
p193 (ALATER), TAT-conjugated (peptide)	u/L	1160

Ask: Sample p194 (ALSAER), TAT-conjugated (peptide) — what was its CPK (u/L)?
Reply: 886

Ask: Also check p192 (AASTER), TAT-conjugated (peptide)
Reply: 1270
